# System: Mythimna separata
# measurement protocol: Insecticidal activity against fourth instar larvae of Mythimna separata (Oriental armyworm) in compound treated corn leaves assessed as mortality at 1 mg/kg by foliar application
# Type: functional
endpoint: mortality at 1 mg/kg

[[record]]
compound = "O=C(NC(=O)c1c(F)cccc1F)Nc1ccc(Cl)cc1 [DIFLUBENZURON]"
endpoint = "mortality at 1 mg/kg"
assay_value = "100%"

[[record]]
compound = "CCOC(=O)N(C(=O)NC(=O)c1c(F)cccc1F)c1ccc(Cl)cc1"
endpoint = "mortality at 1 mg/kg"
assay_value = "0%"

[[record]]
compound = "O=C(NC(=O)N(C(=O)OCc1ccccc1)c1ccc(C(F)(F)F)cc1)c1c(F)cccc1F"
endpoint = "mortality at 1 mg/kg"
assay_value = "0%"

[[record]]
compound = "CCOC(=O)N(C)SN(C(=O)NC(=O)c1c(F)cccc1F)c1ccc(Cl)cc1"
endpoint = "mortality at 1 mg/kg"
assay_value = "20%"

[[record]]
compound = "CC(C)(C)OC(=O)N(C(=O)NC(=O)c1c(F)cccc1F)c1ccc(Cl)cc1"
endpoint = "mortality at 1 mg/kg"
assay_value = "5%"

[[record]]
compound = "CC(C)(C)OC(=O)N(C(=O)NC(=O)c1c(F)cccc1F)c1ccc(C(F)(F)F)cc1"
endpoint = "mortality at 1 mg/kg"
assay_value = "0%"

[[record]]
compound = "CN(SN(C(=O)NC(=O)c1c(F)cccc1F)c1ccc(Cl)cc1)C(=O)OCc1ccccc1"
endpoint = "mortality at 1 mg/kg"
assay_value = "85%"

[[record]]
compound = "CN(SN(C(=O)NC(=O)c1c(F)cccc1F)c1ccc(C(F)(F)F)cc1)C(=O)OC(C)(C)C"
endpoint = "mortality at 1 mg/kg"
assay_value = "100%"

[[record]]
compound = "CCOC(=O)N(C)SN(C(=O)NC(=O)c1c(F)cccc1F)c1ccc(C(F)(F)F)cc1"
endpoint = "mortality at 1 mg/kg"
assay_value = "100%"

[[record]]
compound = "CCOC(=O)N(C(=O)NC(=O)c1c(F)cccc1F)c1ccc(C(F)(F)F)cc1"
endpoint = "mortality at 1 mg/kg"
assay_value = "0%"

[[record]]
compound = "O=C(NC(=O)N(C(=O)OCc1ccccc1)c1ccc(Cl)cc1)c1c(F)cccc1F"
endpoint = "mortality at 1 mg/kg"
assay_value = "0%"


All values here come from ChEMBL document CHEMBL3046681.
